- Test system: ICR male mice
- PROTOCOL_TEXT: Anti-hypoxic activity (Test Example 2), survival time under 4% O2 / 96% N2
- Format: in vivo
- EXPERIMENTAL_PARAMETERS: 100 mg/kg, intraperitoneal, 30 min before gas; control = 100
MEASUREMENT_TYPE: Anti-hypoxic Activity (%)
Answers are plain numbers, in %.

Completed entries (count: 3):
Entry O=C[C@@H]1CCCN1C(=O)[C@@H]1CSCN1C(=O)CC1Cc2ccccc2C1 , Anti-hypoxic Activity reported as 120

Per the records, this compound ( O=C([C@@H]1CCCN1C(=O)c1cc2ccccc2o1)N1CCC[C@H]1CO ) has Anti-hypoxic Activity equal to 128

The recorded Anti-hypoxic Activity for O=C[C@@H]1CSCN1C(=O)[C@@H]1CCCN1C(=O)CC1Cc2ccccc2C1 is 120

Continuing:
Summary for this compound, O=C[C@@H]1CCCN1C(=O)[C@@H]1CSCN1C(=O)C[C@H]1CCc2ccccc2C1 : Anti-hypoxic Activity is 123

====

Answer each item with its documented Anti-hypoxic Activity.
- System: ICR male mice
- PROTOCOL_TEXT: Anti-hypoxic activity (Test Example 2), survival time under 4% O2 / 96% N2
- Type: in vivo
- EXPERIMENTAL_PARAMETERS: 100 mg/kg, intraperitoneal, 30 min before gas; control = 100
One number for each entry, in %.

Respectfully, I request Anti-hypoxic Activity for each entry included below.
1. COc1ccc(C(=O)N2CCCC2=O)cc1 [Aniracetam, reference compound]
2. O=C([C@@H]1CSCN1C(=O)C[C@H]1CCc2ccccc2C1)N1CSC[C@H]1CO
3. O=C[C@@H]1CSCN1C(=O)[C@@H]1CSCN1C(=O)C[C@H]1CCc2ccccc2C1

[115, 115, 129]

====

- TEST_SYSTEM: prolyl endopeptidase from canine brain (Canis lupus familiaris, UniProt A0A8I3N6C8)
- Construct: A prolyl endopeptidase was prepared from canine brains; from tissue; host or cells: canine brain
- Sequence (A0A8I3N6C8 1-710): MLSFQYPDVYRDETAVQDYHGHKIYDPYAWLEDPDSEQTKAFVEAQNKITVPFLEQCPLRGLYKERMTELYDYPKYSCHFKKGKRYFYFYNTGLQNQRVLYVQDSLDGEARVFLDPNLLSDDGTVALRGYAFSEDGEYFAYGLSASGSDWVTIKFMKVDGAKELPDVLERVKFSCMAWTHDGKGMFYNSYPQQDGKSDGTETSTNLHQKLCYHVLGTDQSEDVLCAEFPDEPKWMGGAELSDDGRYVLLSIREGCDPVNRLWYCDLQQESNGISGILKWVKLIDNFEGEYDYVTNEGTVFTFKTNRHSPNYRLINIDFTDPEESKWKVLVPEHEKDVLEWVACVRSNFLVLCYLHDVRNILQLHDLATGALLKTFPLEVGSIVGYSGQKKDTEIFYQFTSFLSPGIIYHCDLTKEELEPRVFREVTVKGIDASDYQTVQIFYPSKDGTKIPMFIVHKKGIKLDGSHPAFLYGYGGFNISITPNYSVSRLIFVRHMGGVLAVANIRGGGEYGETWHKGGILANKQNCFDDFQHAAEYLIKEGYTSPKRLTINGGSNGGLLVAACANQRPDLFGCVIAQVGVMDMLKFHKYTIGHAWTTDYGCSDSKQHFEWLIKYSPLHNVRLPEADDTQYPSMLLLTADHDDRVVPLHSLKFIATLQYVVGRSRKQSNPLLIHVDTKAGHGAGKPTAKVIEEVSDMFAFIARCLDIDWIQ
- PROTOCOL_TEXT: Inhibitory activity against prolyl endopeptidase from brain (Test Example 1)
- Format: biochemical
- EXPERIMENTAL_PARAMETERS: canine brain enzyme, carbobenzoxyglycylprolyl p-nitroanilide substrate, 37° C., pH 7.0; read-out: Inhibition Potency IC50
Record form. Attribute: IC50. Fill in for each entry.
Answers are plain numbers, in nM.

Given item O=C[C@@H]1CSCN1C(=O)[C@@H]1CCCN1C(=O)CC1Cc2ccccc2C1 , the value recorded as its IC50 is 1.2

The molecule listed as O=C[C@@H]1CSCN1C(=O)[C@@H]1CSCN1C(=O)C[C@H]1CCc2ccccc2C1 shows IC50 equal to 1.4

IC50 measured on O=C([C@@H]1CSCN1C(=O)C[C@H]1CCc2ccccc2C1)N1CCC[C@H]1C=NO = 16

Others:
Lab book: IC50 of O=C[C@@H]1CCCN1C(=O)[C@@H]1CCCN1C(=O)c1cc2ccccc2o1 noted as 69
